target: pooled human IgG
observation.type: Enzyme Activity Endpoint Assay: IgG (ng/µL)

protein	observation.type	reading
PRT-558 (protein) MANQEIRYSEETPSTITSIWTKGVTPPTQFIQNEDVLHAPYIANQGWYDITKTFNGKDDLLCGAATAGNMLHWWFDQNKTEIENYLTKHPEKQKINFNGEQMFDVKEAIDTKDSQTDSALFSYFKDKAFPYLSTKHLGVFPDHVIDMFINGYRLSLTNHGPTPVKRGTKDPRGGIFDAVFTRGDQTKLLTARHDFKEKTLNEISDLIKQELTEGKALGLSHTYANVRINHVINLWGADFNSEGNLEAIYVTDSDSNASIGMKKYYVGVNAAGKVAISAKEIEGDNIGAQVLGLFTLSTGQDIWQQTNLEHHHHHH	Enzyme Activity Endpoint Assay: IgG	0
